As shown below, each of these compounds has a reported IC50 value.
# System: CyPPO13 (Synechococcus sp. JA-3-3Ab PPO, SEQ ID NO: 4) variant F373I, MBP fusion
# TEST_SUMMARY: PPO inhibition assay
# Type: biochemical
# DETAILS: herbicide 0-5,000 nM, 50 μM substrate
READOUT_NAME: IC50 (nM)

[
  {
    "COMPOUND": "CC(C)N(C)S(=O)(=O)NC(=O)c1cc(-n2c(=O)cc(C(F)(F)F)n(C)c2=O)c(F)cc1Cl",
    "TARGET_OR_TEST_SYSTEM": "CyPPO13 (Synechococcus sp. JA-3-3Ab PPO, SEQ ID NO: 4) variant F373I, MBP fusion",
    "MEASUREMENT": 1480
  },
  {
    "COMPOUND": "COC(=O)CCNC(=O)C(C)Sc1cc(-n2c(=O)cc(C(F)(F)F)n(C)c2=O)c(F)cc1Cl (centres unmarked)",
    "TARGET_OR_TEST_SYSTEM": "CyPPO13 (Synechococcus sp. JA-3-3Ab PPO, SEQ ID NO: 4) variant F373I, MBP fusion",
    "MEASUREMENT": 135
  }
]
